These measurements were taken from patent US20200223889A1.

Molecular target: human MC4R (Homo sapiens)
Construct: expressed in transfected cells
Sequence (P32245 whole entry): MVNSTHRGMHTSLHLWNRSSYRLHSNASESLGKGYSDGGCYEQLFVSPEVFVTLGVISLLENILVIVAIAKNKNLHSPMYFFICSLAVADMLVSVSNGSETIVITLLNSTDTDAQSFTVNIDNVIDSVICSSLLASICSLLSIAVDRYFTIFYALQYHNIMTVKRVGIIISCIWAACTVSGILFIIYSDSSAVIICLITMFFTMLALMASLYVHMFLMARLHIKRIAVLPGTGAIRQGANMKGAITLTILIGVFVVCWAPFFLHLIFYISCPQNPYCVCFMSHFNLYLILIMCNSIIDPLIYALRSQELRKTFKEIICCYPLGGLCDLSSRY
Test: 125NDP-α-MSH competitive binding to membranes of BHK cells expressing human MC4 receptor (filtration assay)
Settings: human MC4R, BHK cell membranes, 125NDP-α-MSH radioligand; read-out: MC4R binding Ki
Positions of bridges follow the written chain, without caps; N, C: chain ends. Non-standard residues stand in square brackets, D forms with d. Residues, ends and D or L forms follow the SMILES beside them. Pip = O=C(O)[C@@H]1CCCCN1; βAla = NCCC(=O)O
Would you mind telling me the reported Ki of each entry?
Numbers only, in nM.

COMPOUND	Ki / nM
N=C(N)NCCC[C@@H]1NC(=O)[C@@H](Cc2ccccc2)NC(=O)[C@H](Cc2c[nH]cn2)NC(=O)[C@@H]2CCCN2C(=O)[C@@H]2CSSC[C@H](NC(=O)[C@H](Cc3c[nH]c4ccccc34)NC1=O)C(=O)N1CCC[C@H]1C(=O)N[C@@H](Cc1c[nH]cn1)C(=O)N[C@H](Cc1ccccc1)C(=O)N[C@@H](CCCNC(=N)N)C(=O)N[C@@H](Cc1c[nH]c3ccccc13)C(=O)N2 [Chem. 30] (cyclo(CPH[dF]RWCPH[dF]RW); disulfide 1-7)	0.09
N=C(N)NCCC[C@@H]1NC(=O)[C@@H](Cc2ccccc2)NC(=O)[C@H](Cc2c[nH]cn2)NC(=O)CCNC(=O)[C@@H]2CSSC[C@H](NC(=O)[C@H](Cc3c[nH]c4ccccc34)NC1=O)C(=O)NCCC(=O)N[C@@H](Cc1c[nH]cn1)C(=O)N[C@H](Cc1ccccc1)C(=O)N[C@@H](CCCNC(=N)N)C(=O)N[C@@H](Cc1c[nH]c3ccccc13)C(=O)N2 [Chem. 25] (cyclo(C[βAla]H[dF]RWC[βAla]H[dF]RW); disulfide 1-7)	0.04

The record that follows has no Ki shown yet.
-- ask GET /values?readout=Ki&item= C[C@@H]1NC(=O)[C@@H]2CSSC[C@H](NC(=O)[C@H](Cc3c[nH]c4ccccc34)NC(=O)[C@H](CCCCN)NC(=O)[C@H](CCCCN)NC(=O)[C@H](CCCCN)NC1=O)C(=O)N1CCCC[C@H]1C(=O)N[C@@H](Cc1c[nH]cn1)C(=O)N[C@H](Cc1ccccc1)C(=O)N[C@@H](Cc1c[nH]cn1)C(=O)N[C@@H](Cc1c[nH]c3ccccc13)C(=O)N2 [Chem. 83] (cyclo(AKKKWC[Pip]H[dF]HWC); disulfide 6-12)
-- reply 0.17

---

Target: human MC4R (Homo sapiens)
Construct: expressed in transfected cells
Test: Functional cAMP assay (CisBio HTRF) in BHK cells expressing human MC4R
Format: cell-based
Conditions: BHK cells expressing human MC4R; '>' = highest dose used with no response; read-out: MC4R cAMP EC50
Description: In order to assess the potency of the compounds on human MC1R and human MC4R cAMP signalling was measured. cAMP induction was measured by c-AMPdynamic2 assay, HTRF 62AM4PEC system from CisBio for the human MC1R and human MC4R according to the protocol provided by the vendor. BHK cells expressing the human MC1 or MC4 receptor were generated by stable transfection with expression vectors encoding the cDNA of either MC1R or MC4R. […]
Starred links: 1 amine or outer side, 2 acyl side, 3 side chain; linkers in the order of their positions; H or OH if unused. Positions of bridges follow the written chain, without caps; N, C: chain ends. Non-standard residues stand in square brackets, D forms with d. Residues, ends and D or L forms follow the SMILES beside them. Hyp = O=C(O)[C@@H]1C[C@@H](O)CN1; d(hCys) = N[C@H](CCS)C(=O)O; X1 = C(CN[*:2])CS[*:1]; GABA = NCCCC(=O)O
So I've got a bunch of compounds here, and I need their log10(EC50) values.
Values below are the log10 of the recorded EC50, with nM as the unit.

Reference set, count: 9
COMPOUND	ENDPOINT RESULT
N=C(N)NCCC[C@@H]1NC(=O)[C@@H](Cc2ccccc2)NC(=O)[C@@H]2C[C@@H](O)CN2C(=O)[C@@H]2CSSC[C@H](NC(=O)[C@H](Cc3c[nH]c4ccccc34)NC1=O)C(=O)N1C[C@H](O)C[C@H]1C(=O)N[C@H](Cc1ccccc1)C(=O)N[C@@H](CCCNC(=N)N)C(=O)N[C@@H](Cc1c[nH]c3ccccc13)C(=O)N2 [Chem. 27] (cyclo(C[Hyp][dF]RWC[Hyp][dF]RW); disulfide 1-6)	-0.62
C[C@@H]1NC(=O)[C@@H]2CSSC[C@H](NC(=O)[C@H](Cc3c[nH]c4ccccc34)NC(=O)[C@H](CCCCN)NC(=O)[C@H](CCCCN)NC(=O)[C@H](CCCCN)NC1=O)C(=O)N1CCC[C@H]1C(=O)N[C@@H](Cc1c[nH]cn1)C(=O)N[C@H](Cc1ccccc1)C(=O)N[C@@H](Cc1c[nH]cn1)C(=O)N[C@@H](Cc1c[nH]c3ccccc13)C(=O)N2 [Chem. 62] (cyclo(AKKKWCPH[dF]HWC); disulfide 6-12)	-0.77
C[C@@H]1NC(=O)[C@@H]2CSSC[C@H](NC(=O)[C@H](Cc3c[nH]c4ccccc34)NC(=O)[C@H](CCC(N)=O)NC(=O)[C@@H](Cc3ccccc3)NC(=O)[C@H](Cc3c[nH]cn3)NC1=O)C(=O)N[C@@H](C)C(=O)N[C@@H](CCCCN)C(=O)N[C@H](CCCCN)C(=O)N[C@@H](CCCCN)C(=O)N[C@@H](Cc1c[nH]c3ccccc13)C(=O)N2 [Chem. 57] (cyclo(AH[dF]QWCAK[dK]KWC); disulfide 6-12)	-0.72
CC(=O)N[C@@H](C)C(=O)N[C@@H](Cc1c[nH]cn1)C(=O)N[C@H](Cc1ccccc1)C(=O)N[C@@H](CCCNC(=N)N)C(=O)N[C@@H](Cc1c[nH]c2ccccc12)C(=O)N[C@@H]1CCSSCCCNC(=O)[C@H](Cc2c[nH]c3ccccc23)NC(=O)[C@H](CCCNC(=N)N)NC(=O)[C@@H](Cc2ccccc2)NC(=O)[C@H](Cc2c[nH]cn2)NC(=O)[C@H](C)NC1=O [Chem. 3] (Ac-AH[dF]RW[d(hCys)]AH[dF]RW; linker 6-C via X1)	-0.59
C[C@@H]1NC(=O)[C@@H]2CSSC[C@H](NC(=O)[C@H](CCCNC(=N)N)NC(=O)[C@H](CCCCN)NC(=O)[C@H](CCCCN)NC(=O)[C@H](CCCCN)NC1=O)C(=O)N1CCC[C@H]1C(=O)N[C@@H](Cc1c[nH]cn1)C(=O)N[C@H](Cc1ccccc1)C(=O)N[C@@H](Cc1c[nH]cn1)C(=O)N[C@@H](Cc1c[nH]c3ccccc13)C(=O)N2 [Chem. 71] (cyclo(AKKKRCPH[dF]HWC); disulfide 6-12)	-1.10
C[C@@H]1NC(=O)[C@H](C)NC(=O)[C@H](Cc2c[nH]c3ccccc23)NC(=O)[C@H](CCCNC(=N)N)NC(=O)[C@@H](Cc2ccccc2)NC(=O)[C@H](Cc2c[nH]cn2)NC(=O)[C@H](C)NC(=O)[C@H](C)NC(=O)[C@H](Cc2c[nH]c3ccccc23)NC(=O)[C@H](CCCNC(=N)N)NC(=O)[C@@H](Cc2ccccc2)NC(=O)[C@H](Cc2c[nH]cn2)NC1=O [Chem. 7] (cyclo(AAH[dF]RWAAH[dF]RW))	-1.22
C[C@@H]1NC(=O)[C@@H]2CSSC[C@H](NC(=O)[C@H](CCCNC(=N)N)NC(=O)[C@H](CCCCN)NC(=O)[C@H](CCCCN)NC(=O)[C@H](CCCCN)NC1=O)C(=O)N1C[C@H](O)C[C@H]1C(=O)N[C@@H](Cc1c[nH]cn1)C(=O)N[C@H](Cc1ccccc1)C(=O)N[C@@H](Cc1c[nH]cn1)C(=O)N[C@@H](Cc1c[nH]c3ccccc13)C(=O)N2 [Chem. 97] (cyclo(AKKKRC[Hyp]H[dF]HWC); disulfide 6-12)	-0.72
C[C@@H]1NC(=O)[C@@H]2CSSC[C@H](NC(=O)[C@H](CCCNC(=N)N)NC(=O)[C@@H](CCCCN)NC(=O)[C@@H](CCCCN)NC(=O)[C@H](Cc3c[nH]cn3)NC1=O)C(=O)N1CCC[C@H]1C(=O)N[C@@H](Cc1c[nH]cn1)C(=O)N[C@H](Cc1ccccc1)C(=O)N[C@@H](Cc1c[nH]cn1)C(=O)N[C@@H](Cc1c[nH]c3ccccc13)C(=O)N2 [Chem. 121] (cyclo(AH[dK][dK]RCPH[dF]HWC); disulfide 6-12)	-0.62
C[C@@H]1NC(=O)[C@@H]2CSSC[C@H](NC(=O)[C@H](Cc3c[nH]c4ccccc34)NC(=O)[C@H](CCCNC(=N)N)NC(=O)[C@@H](Cc3ccccc3)NC(=O)[C@H](Cc3c[nH]cn3)NC1=O)C(=O)N[C@@H](C)C(=O)N[C@@H](CCCCN)C(=O)N[C@@H](CCCCN)C(=O)N[C@@H](CCCCN)C(=O)N[C@@H](CCCNC(=N)N)C(=O)N2 [Chem. 59] (cyclo(AH[dF]RWCAKKKRC); disulfide 6-12)	-2.40

We now examine a further compound.
-- ask Which value of log10(EC50) has been reported for N=C(N)NCCC[C@@H]1NC(=O)[C@@H](Cc2ccccc2)NC(=O)[C@H](Cc2c[nH]cn2)NC(=O)CCCNC(=O)[C@@H]2CSSC[C@H](NC(=O)[C@H](Cc3c[nH]c4ccccc34)NC1=O)C(=O)NCCCC(=O)N[C@@H](Cc1c[nH]cn1)C(=O)N[C@H](Cc1ccccc1)C(=O)N[C@@H](CCCNC(=N)N)C(=O)N[C@@H](Cc1c[nH]c3ccccc13)C(=O)N2 [Chem. 35] (cyclo(C[GABA]H[dF]RWC[GABA]H[dF]RW); disulfide 1-7) in the records?
-- reply -2.00
